targetOrTestSystem: Thrombin (bovine) (Bos taurus)
Construct: Thrombin (bovine)
assayInfo: Enzyme kinetic determination of Ki with chromogenic substrate, thrombin
Format: biochemical
pKi: −log10 of the molar value.
measuredMetric: pKi

compound: CCOC(=O)CN[C@H](CCc1ccccn1)C(=O)N1CCC[C@H]1C(=O)NCc1cc(Cl)ccc1CN
measuredMetric: pKi
dataValue: 8.42
--
compound: NCc1ccc(Cl)cc1CNC(=O)[C@@H]1CCCN1C(=O)[C@@H](CCc1cccc[n+]1[O-])NS(=O)(=O)Cc1ccccc1
measuredMetric: pKi
dataValue: 9.25

A = NCc1ccc(Cl)cc1CNC(=O)CNC(=O)C(CCc1cccc[n+]1[O-])NCC(=O)O (stereo not shown)
B = NCc1ccc(Cl)cc1CNC(=O)CNC(=O)C(CCc1cccc[n+]1[O-])NC(=O)CC(=O)O (stereo not shown)
Given the two records A and B , choose the one whose pKi value is lower. // caller expects the label of the chosen entry
A
